# key: entry, value: melting point

Observe how each entry below is paired with its result.
CCCCOCCOc1ccc(-c2cnc(N3CCC(COC(C)=O)C3)c(/C=C(\C)C(=O)O)c2)cc1 (stereo not given): 82.2 to 84.2 °C
COc1ccc(CNc2c(NC(C)(C)C)c(=O)c2=O)c(OC)c1: 225 to 226 °C
Cc1c(-c2ccc(O)cc2)n(Cc2ccc(OCCN3CCC(C)CC3)cc2)c2ccc(O)cc12: 154 to 162 °C
CCc1ccc(-c2ccc(F)cc2)cc1: 60 to 63 °C
O=c1[nH]c2c(cc1-c1noc(C3CC3)n1)CN(Cc1ccccc1)CC2: 187 to 190 °C
NC[C@H]1COc2ccc(Cl)c(-c3ccccc3C(F)(F)F)c2O1: 84 °C
c1ccc(-c2csc(-c3cnn4cccnc34)c2)cc1: 72 to 72.5 °C
CNc1cccc(-c2ccnc3c(C(=O)c4ccccc4)cnn23)c1: 134 to 136 °C
CN(C)CC1CC(c2ccc(Cl)cc2)c2ccccc2O1 (stereo not given): 120 to 122 °C
COC1(c2ccc(C(F)(F)F)cc2CN(Cc2cc(C(F)(F)F)cc(C(F)(F)F)c2)c2nnn(C)n2)CCCCCC1: 103 to 104 °C

Problem: What does the data say about its melting point? Entry: `CCC(=S)NC[C@H]1CN(c2ccc(N3CCN(C(=O)CCC(=O)c4ccc(CN(C)C)cc4)CC3)c(F)c2)C(=O)O1`
Solution: 169 °C

Problem: What does the data say about its melting point? Entry: `CCOC(=O)C(=O)c1csc(NC(=O)Nc2ccc(OC)cc2)n1`
Solution: 193 to 196 °C

Problem: Could you share which melting point value was measured for CC1COCc2nc3c(N)nc4cc(O)ccc4c3n21 (stereo not given) ?
Solution: > 250 °C

Problem: What value of measured melting point is listed for `Cc1ccc(CS(=O)(=O)c2nc3cscc3[nH]2)nc1` ?
Solution: 163 °C

Problem: Consider the compound shown here: `NC(=O)N1CCCC(=O)c2ccc(Cl)cc2CCC1=O` What is its recorded melting point?
Solution: 182 to 184 °C

====

Reported melting point by item:

Cc1cccc2cc(N3CCN(C)CC3)[nH]c(=O)c12: 224 to 225 °C
NCc1ccc(Nc2ncnc3[nH]cc(C(=O)c4ccccc4)c23)cc1: 255 to 257 °C
COc1cc2c(Nc3ccc(Cl)cc3F)ncnc2cc1OCCCSc1nccn1C: 199 to 201 °C
N#Cc1nccn1Cc1ccccc1: 51 to 52 °C

Here's the next entry for you.
Problem: I am curious: what melting point value has been reported for O=C1c2ccccc2CN1C1CCN(c2ccc(C(OCc3ccccc3)c3ccccc3)cc2)CC1 (stereo not given) ?
Solution: 112 to 115 °C

====

Listed below: melting point values for each entry.

# annotated cases, reported melting point shown
Oc1ccc(Nc2ccc3cc(Br)ccc3c2)cc1: 179 to 180 °C
O=c1[nH]c2cc(Cl)ccc2c(O)c1-c1ccccc1[N+](=O)[O-]: 298 to 300 °C
CCC[C@H](N[C@@H](C)C(=O)O)C(=O)OCC: 153 to 154 °C

Problem: # melting point lookup, item `Cc1cc(N(C)C)ccc1-c1c(O)c(=O)c1=O`
Solution: > 114 °C

Problem: Any idea what its melting point is? The compound is `CCCCOc1ccc(-c2nc(Cl)c(C=O)[nH]2)cc1`
Solution: 74 °C

Problem: Fill in the blank: the reported melting point of COC(=O)C1=CCC(C#N)(c2ccc(OC)c(OC3CCCC3)c2)CC1 (stereo not given) is ____.
Solution: 128 to 129 °C

Problem: Sample `O=C(O)c1ccc(COCc2csc3nc(C(=O)NCc4ccc(F)c(Br)c4)[nH]c(=O)c23)cc1` — what was its melting point?
Solution: 231 to 233 °C

Problem: Item `CC(C)(C)Sc1c(CC(C)(C)C(=O)O)n(Cc2ccc(Cl)cc2)c2cc(OCc3ccc4ccccc4n3)ccc12` has what recorded melting point?
Solution: 165 to 167 °C

Problem: Dear colleague, I am looking for the recorded melting point of the following compound: CC(C)CC1(C(CC(C)Sc2cccs2)C(=O)NO)CCN(CCc2ccccc2)C1=O (stereo not given)
Solution: 104 to 105 °C

Problem: Would you kindly share the measured melting point for `COC(=O)c1cccc(-c2ccccc2[N+](=O)[O-])c1` ?
Solution: 88 to 90 °C

Problem: I'd like to know its melting point. The compound in question is CCNC(=O)c1ccc2oc(C(=O)C(Cc3ccccc3)NC(=O)Cn3c(-c4ccc(F)cc4)ncc(NC(=O)OCc4ccccc4)c3=O)nc2c1 (stereo not given)
Solution: 256 to 261 °C

Problem: Need melting point of `COc1cc(Nc2c(C#N)cnc3cc(-c4cc5ccccc5o4)sc23)c(Cl)cc1Cl` , thanks.
Solution: 281 to 282 °C

Problem: Look up melting point: `COc1cc2ncnc(N3CCC(CN4C=CC(C)=NS4(=O)=O)CC3)c2cc1OC`
Solution: 203 to 207 °C

Problem: What value of melting point has been reported for the following compound? O=C1CCC(C(=O)O)c2cc(Cl)c(C3CCCCC3)cc21 (stereo not given)
Solution: 204 to 205 °C

Problem: Looking for the measured melting point of `COC(=O)CSc1cc(NC(=O)OC(C)(C)C)c([N+](=O)[O-])cc1I` , can you help?
Solution: 110 to 112 °C

Problem: // melting point lookup, key: `O=C1CC(c2cccc(-n3cnnn3)c2)=Nc2ccc(-c3ccccc3F)cc2N1`
Solution: 179 to 180 °C

Problem: Entry under review: `COc1cc(=O)[nH]c2cc(O)ccc2c1=O` . Reported melting point?
Solution: 273 to 275 °C

Problem: Sample `O=c1c2ccccc2oc2cccn12` — what was its melting point?
Solution: 129 to 130 °C

Problem: # melting point lookup, item OC(CSc1ccc(Cl)cc1)Cn1ccnc1 (stereo not given)
Solution: 108 to 109 °C

Problem: Give the measured melting point of `CCC(CC)Nc1cc(C)nc(Oc2c(C)cc(Cl)cc2C)c1N` .
Solution: 72 to 74 °C
